ASSAY NOTES: chemical genetic growth profiling, strain panel (AID 1159580);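 note: tested at 20 µM; growth read once vehicle control cultures reached saturation at 30 °C; 1 = growth at the plate median or of vehicle wells; lower values mean less growth of the strain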
DETAILS: S. cerevisiae deletion strains, growth OD, locus YDR392W, strain spt3, stronger effect = lower value
Among all 5,500 compounds or so, about 2,000 (36%) were called active. Roughly 18% stayed inconclusive and do not appear here. The list shows a part of the results.
Each item that follows carries a reported normalized growth.

CCC(C)[C@H]1O[C@]2(C=C[C@@H]1C)C[C@@H]1C[C@@H](C/C=C(\C)[C@@H](OC3C[C@H](OC)C(O[C@H]4C[C@H](OC)[C@@H](O)[C@H](C)O4)[C@H](C)O3)[C@@H](C)/C=C/C=C3\CO[C@@H]4[C@H](O)C(C)=C[C@@H](C(=O)O1)[C@]34O)O2 (stereo not given in full); 0.855 (inactive)
Cc1c(C)c2c(c(C)c1O)CCC(C)(CCCC(C)CCCC(C)CCCC(C)C)O2 (stereo not given); 0.929 (inactive)
CC(CCC(=O)O)[C@H]1CCC2C3C(=O)C[C@@H]4CC(=O)CC[C@]4(C)C3CC(=O)[C@@]21C (stereo not given in full); 0.932 (inactive)

[in] For CC(C)=CCCC(C)[C@@H]1CC[C@]2(C)C3=C(CC[C@@]12C)C1(C)CC[C@H](O)C(C)(C)C1CC3 (stereo not given in full) , write its normalized growth.
[out] 1.02 (inactive)

[in] Find the measured normalized growth of `CNNC` and report it.
[out] 1.01 (inactive)

====

ASSAY NOTES: chemical genetic growth profiling, strain panel (AID 1159580);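 note: tested at 20 µM; growth read once vehicle control cultures reached saturation at 30 °C; 1 = growth at the plate median or of vehicle wells; lower values mean less growth of the strain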
DETAILS: S. cerevisiae deletion strains, growth OD, locus YPL078C, strain atp4, stronger effect = lower value
Out of some 5,500 compounds screened, about 2,000 (36%) were called active. About 18% were inconclusive and are not listed. Some of the results follow.
Parameter normalized growth: see the listing below.
In your answer, state the number alone without any accompanying words.

Some compounds with recorded normalized growth:
CC1=CCCC2C1(C)CCC(C)C2(C)CC/C(C)=C/C[n+]1cn(C)c2c(N)ncnc21 (stereo not given); 0.896
CC(=O)OCC(=O)[C@@]1(O)[C@H](C)CC2C3CCC4=CC(=O)C=C[C@]4(C)[C@@]3(F)[C@@H](O)C[C@@]21C (stereo not given in full); 0.934
COC(=O)/C(=C1\OC(=O)C(c2ccccc2)=C1O)c1ccccc1; 0.972
CCN(CC)CCOC(=O)C1(C2CCCCC2)CCCCC1; 1.01
CN(C)[C@@H]1C(=O)C(C(N)=O)=C(O)[C@@]2(O)C(=O)C3=C(O)c4c(O)ccc(Cl)c4[C@@H](O)[C@H]3C[C@@H]12; 0.934

[in] Dear colleague, please send me the reported normalized growth for COc1ccccc1OCC(O)CO (stereo not given) when you can.
[out] 1.02

[in] State, in one line, measured normalized growth of `Cc1cc(=O)oc2cc(O)cc(O)c12`
[out] 0.969

[in] Please give the documented normalized growth of `NC1=NCCN1CC(=O)O`
[out] 1.03

[in] Check the records and state normalized growth for `C[C@H]1c2cccc(O)c2C(O)=C2C(=O)[C@]3(O)C(O)=C(C(N)=O)C(=O)[C@@H](N(C)C)[C@@H]3[C@@H](O)[C@@H]21`
[out] 0.999

[in] Return reported normalized growth. Input compound: `CN(C)[C@@H]1C(=O)C(C(N)=O)=C(O)[C@@]2(O)C(=O)C3=C(O)c4c(O)cccc4[C@@](C)(O)[C@H]3[C@H](O)[C@@H]12`
[out] 1.03
